# Tested on: HS 578T breast
# assay comment: NCI tumour cell line growth inhibition, 48 h; in the data active means GI50 below about 0.43 µM; inactive means the rest
Classes to choose from: T for active, F for inactive

Query :: What is the recorded call for this molecule in the test? CS(=O)(=O)c1ccc(C(F)(F)F)cc1NC(=O)Nc1cnc(Oc2ccc(-c3cc(Cl)cnc3N)cc2)nc1
Result :: F

----------
# System: MALME-3M melanoma
# assay comment: NCI tumour cell line growth inhibition, 48 h; in the data active = GI50 below about 0.43 µM; inactive = the rest
Classes to choose from: active, inactive

Check out these entries, answers already filled in.
| compound | category label |
| --- | --- |
| O=C1Nc2ccccc2SC1C1SC(=S)N(Cc2ccccc2)C1=O (centres undefined) | inactive |
| COc1ccc2[nH]cc(/C=C3\C(=O)Nc4ccccc43)c2c1 | inactive |
| O=[N+]([O-])c1ccc(N(CCO)CCO)c2c1no[n+]2[O-] | inactive |

Query :: What is the recorded call for this compound in the test? O=C(Oc1ccc([N+](=O)[O-])cc1)N1CCC(C(O)(c2ccc3c(c2)OCO3)c2ccc3c(c2)OCO3)CC1
Result :: inactive
